- assay system: recombinant HPK1 protein (Homo sapiens (Human), UniProt Q92918)
- Sequence (Q92918 whole entry): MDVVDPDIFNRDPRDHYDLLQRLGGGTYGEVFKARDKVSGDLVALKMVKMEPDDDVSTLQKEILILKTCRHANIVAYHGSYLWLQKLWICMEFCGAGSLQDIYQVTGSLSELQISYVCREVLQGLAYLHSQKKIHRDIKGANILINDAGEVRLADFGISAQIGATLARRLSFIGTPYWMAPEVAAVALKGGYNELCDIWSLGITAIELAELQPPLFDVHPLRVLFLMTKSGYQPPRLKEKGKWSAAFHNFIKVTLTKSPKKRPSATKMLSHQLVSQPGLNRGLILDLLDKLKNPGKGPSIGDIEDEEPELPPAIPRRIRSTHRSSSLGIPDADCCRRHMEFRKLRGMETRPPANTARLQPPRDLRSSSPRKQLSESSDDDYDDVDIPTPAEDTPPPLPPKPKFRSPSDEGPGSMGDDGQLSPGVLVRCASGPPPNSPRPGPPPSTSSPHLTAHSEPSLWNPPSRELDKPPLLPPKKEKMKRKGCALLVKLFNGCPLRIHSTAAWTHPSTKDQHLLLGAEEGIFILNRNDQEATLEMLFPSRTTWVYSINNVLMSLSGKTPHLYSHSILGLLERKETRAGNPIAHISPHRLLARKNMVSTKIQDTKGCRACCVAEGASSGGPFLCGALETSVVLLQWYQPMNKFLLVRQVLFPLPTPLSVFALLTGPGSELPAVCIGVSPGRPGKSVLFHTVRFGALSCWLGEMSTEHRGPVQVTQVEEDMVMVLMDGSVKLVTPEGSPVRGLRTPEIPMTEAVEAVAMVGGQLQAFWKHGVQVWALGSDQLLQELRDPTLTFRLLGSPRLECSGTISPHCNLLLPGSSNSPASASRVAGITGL
- protocol details: Primary HPK1 enzymatic inhibition (ADP-Glo luminescence)
- condition description: recombinant HPK1, MBP substrate, 1 hour at room temperature
pKi: −log10 of the molar value.
measurement kind: pKi

Hello, I would appreciate it if you could give pKi for each entry below.
1. COc1ccc2ncc3c(-c4ccc(N5CCC(N(C)C)CC5)cc4)nn(-c4ccc(C)c(C)c4)c3c2c1 [Compound 1.17]
2. Cc1ccc(-n2nc(-c3ccc(N4CCNCC4)cc3)c3cnc4ccccc4c32)cc1C [Compound 1.22]
3. COc1ccc2ncc3c(-c4ccc(N(C)CCCN(C)C)cc4)nn(-c4ccc(C)c(C)c4)c3c2c1 [Compound 1.18]
4. COc1ccc2ncc3c(-c4cccc(N5CCC(N(C)C)CC5)c4)nn(-c4ccc(C)c(C)c4)c3c2c1 [Compound 1.1]

-- reply
1: 7.70 to 8.00; 2: ≤ 7.30; 3: 7.30 to 7.70; 4: 7.70 to 8.00
